Measured values drawn from the supplement of paper PMC12669032 for this set.

- Test system: Bifidobacterium longum subsp. longum
- assay name: growth AUC relative to DMSO control (median of replicates) (fraction); higher = more growth (less inhibition), active = hit call of the paper
- condition set: 20 µM; 24 h
measured endpoint: growth AUC

>>> df
                                   compound  measured_endpoint  measured_value
0  COP(=S)(OC)Oc1ccc(Sc2ccc(OP(=S)(OC)OC)cc2)cc1         growth AUC            0.94
1          COP(N)(=O)SC (centres undefined)         growth AUC           0.989
2  COC(=O)C(C)N(C(=O)Cc1ccccc1)c1c(C)cccc1C (centres undefined)         growth AUC            1.02
3               Nc1c(Cl)c(Cl)c(Cl)c(Cl)c1Cl         growth AUC           0.949

----------
Measured growth AUC accompanies every entry in the list below.
- Tested on: Bacteroides thetaiotaomicron
- assay name: growth AUC relative to DMSO control (median of replicates) (fraction); higher = more growth (less inhibition), active = hit call of the paper
- condition set: 20 µM; 24 h
measured endpoint: growth AUC

>>> df
                                    compound  measured_endpoint    measured_value
 0                  CON(C)C(=O)Nc1ccc(Cl)cc1         growth AUC   1.03 (inactive)
 1                   Clc1cccc(C(Cl)(Cl)Cl)n1         growth AUC   1.02 (inactive)
 2  C=CCC1=C(C)C(OC(=O)C2C(C=C(C)C)C2(C)C)CC1=O (mixture of isomers)         growth AUC  0.972 (inactive)
 3   C[Si](Cn1cncn1)(c1ccc(F)cc1)c1ccc(F)cc1         growth AUC  0.895 (inactive)
 4                COc1nc(NC(C)C)nc(NC(C)C)n1         growth AUC   1.02 (inactive)
 5  CC(Oc1cc(Cl)c(Cl)cc1Cl)C(=O)O (stereo not given)         growth AUC   0.99 (inactive)
 6          CN(C(=O)COc1nc2ccccc2s1)c1ccccc1         growth AUC   0.96 (inactive)
 7        O=[N+]([O-])NC1=NCOCN1Cc1cnc(Cl)s1         growth AUC  0.979 (inactive)
 8  CC(=O)CC(c1ccco1)c1c(O)c2ccccc2oc1=O (stereo not given)         growth AUC   0.98 (inactive)
 9  CNC(=O)c1cc(Cl)cc(C)c1NC(=O)c1cc(Br)nn1-c1ncccc1Cl         growth AUC  0.967 (inactive)
10  CNC(=O)Oc1ccccc1OC(CCl)OC (stereo not given)         growth AUC   1.02 (inactive)
11  C#CCN1C(=O)COc2cc(F)c(N3C(=O)C4=C(CCCC4)C3=O)cc21         growth AUC      1 (inactive)
12        CC1(C(=O)Nc2ccc(O)c(Cl)c2Cl)CCCCC1         growth AUC   0.94 (inactive)
13   CC(=O)O.NC(N)=NCCCCCCCCNCCCCCCCCN=C(N)N         growth AUC   0.0333 (active)
14  c1nc[n]([Sn]([CH]2CCCCC2)([CH]2CCCCC2)[CH]2CCCCC2)n1         growth AUC  0.955 (inactive)
15  COCC(=O)N(c1c(C)cccc1C)C(C)C(=O)OC (stereo not given)         growth AUC   1.02 (inactive)
16  CCC(C)Nc1c([N+](=O)[O-])cc(C(C)(C)C)cc1[N+](=O)[O-] (stereo not given)         growth AUC  0.931 (inactive)
17  O=C1C2(Cl)C3(Cl)C4(Cl)C(Cl)(Cl)C5(Cl)C3(Cl)C1(Cl)C5(Cl)C24Cl (stereo not given)         growth AUC   0.0105 (active)
18              CCOP(=O)(Sc1ccccc1)Sc1ccccc1         growth AUC  0.932 (inactive)
19                     C[N+]1(C)CCCCC1.[Cl-]         growth AUC   1.03 (inactive)
20               CCOP(=O)(OCC)OP(=O)(OCC)OCC         growth AUC   1.03 (inactive)
21  CC(COc1ccc(Oc2ccccc2)cc1)Oc1ccccn1 (stereo not given)         growth AUC  0.993 (inactive)
22       COP(=O)(OC)Oc1ccc(S(C)(=O)=O)c(C)c1         growth AUC      1 (inactive)
23  CC(Oc1ccc(Oc2ccc(Cl)cc2Cl)cc1)C(=O)O (racemic)         growth AUC  0.989 (inactive)
24        CN/C(=N\[N+](=O)[O-])NCc1cnc(Cl)s1         growth AUC      1 (inactive)
25                CCNC(=O)NC(=O)/C(C#N)=N/OC         growth AUC      1 (inactive)
26                 Cc1nnc(-c2ccccc2)c(=O)n1N         growth AUC   1.02 (inactive)
27  C[n+]1ccc(-c2cc[n+](C)cc2)cc1.O.[Cl-].[Cl-]         growth AUC  0.996 (inactive)
28  CCC1COC(Cn2cncn2)(c2ccc(Cl)cc2Cl)O1 (stereo not given)         growth AUC  0.982 (inactive)
29               Cc1ccc(NC(=O)c2snnc2C)cc1Cl         growth AUC  0.905 (inactive)
30     COP(=S)(OC)Oc1ccc([N+](=O)[O-])c(C)c1         growth AUC   0.99 (inactive)
31  CCCN(CCCl)c1c([N+](=O)[O-])cc(C(F)(F)F)cc1[N+](=O)[O-]         growth AUC  0.918 (inactive)
32                      COc1cc(Cl)c(OC)cc1Cl         growth AUC   1.04 (inactive)
33  CN(C)C(CSS(=O)(=O)c1ccccc1)CSS(=O)(=O)c1ccccc1         growth AUC   1.06 (inactive)
34     CNc1cnn(-c2cccc(C(F)(F)F)c2)c(=O)c1Cl         growth AUC  0.994 (inactive)
35  Cc1c(COC(=O)[C@@H]2[C@H](/C=C(\Cl)C(F)(F)F)C2(C)C)cccc1-c1ccccc1         growth AUC  0.974 (inactive)
36  ClC1=C(Cl)C2(Cl)[C@H]3[C@H]4O[C@H]4[C@H](Cl)[C@H]3C1(Cl)C2(Cl)Cl (single isomer, unassigned; isomer a)         growth AUC   1.02 (inactive)
37                    O=C(O)COc1ccc(Cl)cc1Cl         growth AUC      1 (inactive)
38      CN(C)S(=O)(=O)N(SC(F)(Cl)Cl)c1ccccc1         growth AUC   1.01 (inactive)
39  CC(C)(C)C(O)C(Oc1ccc(-c2ccccc2)cc1)n1cncn1 (mixture of isomers)         growth AUC  0.938 (inactive)
40                CCNc1nc(Cl)nc(NC(C)(C)C)n1         growth AUC  0.967 (inactive)
41     CCCOCC(=Nc1ccc(Cl)cc1C(F)(F)F)n1ccnc1         growth AUC  0.934 (inactive)
42                CNC(=O)Oc1cc(C)c(SC)c(C)c1         growth AUC   1.01 (inactive)
43  CC(Cc1ccc(C(C)(C)C)cc1)CN1CCCCC1 (stereo not given)         growth AUC  0.974 (inactive)
44  O=C(O)C(F)(F)C(F)(F)C(F)(F)C(F)(F)C(F)(F)C(F)(F)C(F)(F)C(F)(F)C(F)(F)F         growth AUC    1.1 (inactive)
